Test system: Enterococcus sp.
Test: in vitro antibacterial evaluation, MIC by broth dilution
Assay type: cell-based
Conditions: Enterococcus faecium (GC 2243); broth dilution, 18 hours at 35° C.

>  <compound>
CC(c1ccccc1)C1NC(=O)CNC(=O)C(CO)NC(=O)C(C(O)C2CNC(=N)N2C2OC(CO)C(O)C(O)C2O)NC(=O)C(C(O)C2CNC(=N)N2)NC(=O)C(Cc2ccc(OC3OC(CO)C(OC4OC5COC(c6cccc(Cl)c6)OC5C(O)C4O)C(O)C3O)cc2)NC1=O (stereo not shown)

>  <value-modifier>
=

>  <MIC Enterococcus faecium (GC 2243), µg/mL>
4

$$$$
>  <compound>
CC(C)=CCCC(C)=CCN=C1NCC(C(O)C2NC(=O)C(C(O)C3CNC(=N)N3)NC(=O)C(Cc3ccc(OC4OC(CO)C(OC5OC6COC7(OC6C(O)C5O)C5CC6CC(C5)CC7C6)C(O)C4O)cc3)NC(=O)C(C(C)c3ccccc3)NC(=O)CNC(=O)C(CO)NC2=O)N1C1OC(CO)C(O)C(O)C1O (stereo not shown)

>  <value-modifier>
=

>  <MIC Enterococcus faecium (GC 2243), µg/mL>
8

$$$$
>  <compound>
CC(C)CC(=O)OC1C(O)C(CO)OC(OC2C(CO)OC(Oc3ccc(CC4NC(=O)C(C(C)c5cccs5)NC(=O)CNC(=O)C(CO)NC(=O)C(C(O)C5CNC(=N)N5C5OC(CO)C(O)C(O)C5O)NC(=O)C(C(O)C5CNC(=N)N5)NC4=O)cc3)C(O)C2O)C1O (stereo not shown) [Example 265b]

>  <value-modifier>
=

>  <MIC Enterococcus faecium (GC 2243), µg/mL>
64

$$$$
>  <compound>
CC(C1CCCCC1)C1NC(=O)CNC(=O)C(CO)NC(=O)C(C(O)C2CNC(=N)N2C2OC(CO)C(O)C(O)C2O)NC(=O)C(C(O)C2CNC(=N)N2)NC(=O)C(CC2CCC(OC3OC(CO)C(OC4OC(CO)C(O)C(O)C4O)C(O)C3O)CC2)NC1=O (stereo not shown) [Example 53a]

>  <value-modifier>
>

>  <MIC Enterococcus faecium (GC 2243), µg/mL>
128

$$$$
